target or test system: human 5-HT2B receptor (Homo sapiens, UniProt P41595)
Construct: expressed in transfected cells
Sequence (P41595 whole entry): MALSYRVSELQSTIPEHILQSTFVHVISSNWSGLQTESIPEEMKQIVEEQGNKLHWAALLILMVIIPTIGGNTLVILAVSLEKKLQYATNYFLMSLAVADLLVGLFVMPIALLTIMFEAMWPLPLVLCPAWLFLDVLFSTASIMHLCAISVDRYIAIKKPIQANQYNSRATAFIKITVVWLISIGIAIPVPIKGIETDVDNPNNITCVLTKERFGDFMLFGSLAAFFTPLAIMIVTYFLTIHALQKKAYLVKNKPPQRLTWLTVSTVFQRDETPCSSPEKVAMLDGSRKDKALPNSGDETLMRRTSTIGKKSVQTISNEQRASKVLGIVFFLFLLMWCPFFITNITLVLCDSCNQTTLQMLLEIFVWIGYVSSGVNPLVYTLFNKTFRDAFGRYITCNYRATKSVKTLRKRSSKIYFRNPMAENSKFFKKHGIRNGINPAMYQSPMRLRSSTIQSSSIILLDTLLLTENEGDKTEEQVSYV
experiment summary: cell-based
Assay type: cell-based
assay setup: CHO; fraction of response to 10 μM 5-HT
Field: label. Allowed values: fulfilled (Rel. eff h5-HT2B < 0.9) or not fulfilled (Rel. eff h5-HT2B >= 0.9).

The following compounds have reported results that may help.
> print(dat)
                                   compound                     target.or.test.system          group
1  COc1cc(CC(C)N)c(OC)cc1I (centres unmarked)  human 5-HT2B receptor (Homo sapiens, UniProt P41595)  not fulfilled
2  CC(N)Cc1c[nH]c2ccc(OCc3cccs3)cc12 (centres unmarked)  human 5-HT2B receptor (Homo sapiens, UniProt P41595)  not fulfilled
3                FC(F)(F)c1cccc(N2CCNCC2)c1  human 5-HT2B receptor (Homo sapiens, UniProt P41595)      fulfilled
4                      Clc1cccc(N2CCNCC2)c1  human 5-HT2B receptor (Homo sapiens, UniProt P41595)      fulfilled

input: Decide: Rel. eff h5-HT2B of "NCCc1c[nH]c2ccc(C(N)=O)cc12" strictly below 0.9?
output: not fulfilled
